Tested on: acpP::gfp reporter transcript
testMethodNotes: In vitro translation (PURExpress) and anti-GFP western blot
Type: biochemical, Salmonella enterica
testSettings: acpP-RNA : ASO 1 : 5; unconjugated ASO; RNA 100 nM, 2 h 37 °C; relative to water control
observable: GFP Expression (%)
Numbers only, in %.

Hi, could you look up GFP Expression (%) for each item in my list?
1. RNA-OMe: 10mer 2'-methylated RNA antisense oligomer, sequence CTCATACTCT, targeting acpP (all 2'-O-methyl, backbone and T or U not given here)
2. LNA: 10mer 2'-4'-locked RNA antisense oligomer, sequence CTCATACTCT, targeting acpP (all LNA, backbone and methylation of C not given here)

**A:**
[89.0, 6.5]
